- ASSAY REMARKS: Selectivity ratio of EC50 for antiviral activity against HIV1 IIIB infected in human MT4 cells to EC50 for antiviral activity against HIV2 ROD infected in human MT4 cells
- Type: toxicity, cell-based
TEST READOUT: Ratio EC50
No unit in the answer, please; the number alone is enough.

Consider the worked cases shown below.
[[record]]
smiles_structure = "COc1ccc(N(C)C(=O)[C@H](Cc2ccccc2)NC(=O)Cn2ccc(NC(=O)c3ccccc3F)cc2=O)cc1"
measured = 2.26

[[record]]
smiles_structure = "COc1ccc(N(C)C(=O)[C@H](Cc2cc(F)cc(F)c2)NC(=O)CN2CCN(C(=O)c3ccc(NC(=O)C(F)(F)F)cc3)CC2=O)cc1"
measured = 0.83

[[record]]
smiles_structure = "COc1ccc(-n2c(SCCC3OCCCO3)nnc2[C@H](Cc2ccccc2)NC(=O)Cc2c(C)[nH]c3ccccc23)cc1"
measured = 0.25


Next item in the queue.
Which measured Ratio EC50 value corresponds to `COc1ccc(-n2c([C@H](Cc3ccccc3)NC(=O)CN3CCN(S(=O)(=O)c4ccc(N)cc4)CC3)nc3cc(S(C)(=O)=O)ccc3c2=O)cc1` ?
10.97

###

- Test system: Human immunodeficiency virus 1
- ASSAY REMARKS: Antiviral activity against HIV1 IIIB infected in human MT4 cells assessed as reduction in virus induced cytopathic effect measured after 5 days by MTT assay
- Format: functional, organism-based
- MEASUREMENT PARAMETERS: Human immunodeficiency virus 1, IIIB, MT4, 120 h
The threshold is 3 µM. Values of EC50 beneath it are tagged fulfilled; values meeting or exceeding it are tagged not fulfilled.

[[record]]
smiles_structure = "COc1ccc(N(C)C(=O)[C@H](Cc2cc(F)cc(F)c2)NC(=O)CN2CCN(C(=O)c3ccc(NC(=O)C(F)(F)F)cc3)CC2=O)cc1"
experimental_target = "Human immunodeficiency virus 1"
answer_label = "not fulfilled"


Is the reported EC50 for `COc1ccc(-n2c(SCCC(F)(F)F)nnc2[C@H](Cc2ccccc2)NC(=O)Cc2c(C)[nH]c3ccccc23)cc1` strictly below 3 µM?
fulfilled

Is the reported EC50 for `COc1ccc(-n2c(SCC(F)F)nnc2[C@H](Cc2ccccc2)NC(=O)Cc2c(C)[nH]c3ccccc23)cc1` strictly below 3 µM?
fulfilled

Is the reported EC50 for `COc1ccc(N(C)C(=O)[C@H](Cc2cc(F)cc(F)c2)NC(=O)CN(Cc2ccc(C#N)cc2)C(=O)Cc2cccc3ccccc23)cc1` strictly below 3 µM?
not fulfilled

###

Measured EC50 values are reported for all entries that follow.
- Tested on: Human immunodeficiency virus 1
- ASSAY REMARKS: Antiviral activity against HIV1 IIIB infected in human MT4 cells assessed as reduction in virus induced cytopathic effect measured after 5 days by MTT assay
- Type: functional, organism-based
- MEASUREMENT PARAMETERS: Human immunodeficiency virus 1, IIIB, MT4, 120 h

Consider the worked cases shown below.
[[record]]
smiles_structure = "COc1ccc(N(C)C(=O)[C@H](Cc2ccccc2)NC(=O)Cn2ccc(NC(=O)c3ccc(F)cc3)cc2=O)cc1"
measured = "> 34.8 µM"

[[record]]
smiles_structure = "COC(=O)CCSc1nnc([C@H](Cc2ccccc2)NC(=O)Cc2c(C)[nH]c3ccccc23)n1-c1ccc(OC)cc1"
measured = "11.4 µM"

[[record]]
smiles_structure = "COc1ccc(-n2c(SCC#N)nnc2[C@H](Cc2ccccc2)NC(=O)Cc2c(C)[nH]c3ccccc23)cc1"
measured = "0.59 µM"


Which measured EC50 value corresponds to `COc1ccc(N(C)C(=O)[C@H](Cc2cc(F)cc(F)c2)NC(=O)Cn2ccc(N)cc2=O)cc1` ?
5.36 µM

Which measured EC50 value corresponds to `COc1ccc(N(C)C(=O)[C@H](Cc2ccccc2)NC(=O)Cn2ccc(NC(=O)c3ccccc3)cc2=O)cc1` ?
16.8 µM

Which measured EC50 value corresponds to `COc1ccc(-n2c(SCC(N)=O)nnc2[C@H](Cc2ccccc2)NC(=O)Cc2c(C)[nH]c3ccccc23)cc1` ?
0.88 µM

Which measured EC50 value corresponds to `COc1ccc(N(C)C(=O)[C@H](Cc2ccccc2)NC(=O)Cn2ccc(NC(=O)c3cccc(F)c3)cc2=O)cc1` ?
18.9 µM

Which measured EC50 value corresponds to `COc1ccc(N(C)C(=O)[C@H](Cc2cc(F)cc(F)c2)NC(=O)CN2CCN(C(=O)Cc3c[nH]c4ccc(OC)cc34)CC2=O)cc1` ?
> 15.9 µM

###

Measured EC50 values are reported for all entries that follow.
- System: Human immunodeficiency virus 1
- ASSAY REMARKS: Antiviral activity against HIV1 IIIB infected in human MT4 cells assessed as reduction in virus induced cytopathic effect measured after 5 days by MTT assay
- Type: functional, organism-based
- MEASUREMENT PARAMETERS: Human immunodeficiency virus 1, IIIB, MT4, 120 h
Express your answer in nM, writing the number without its unit.

Consider the worked cases shown below.
[[record]]
smiles_structure = "COC(=O)C(C)(C)Sc1nnc([C@H](Cc2ccccc2)NC(=O)Cc2c(C)[nH]c3ccccc23)n1-c1ccc(OC)cc1"
experimental_target = "Human immunodeficiency virus 1"
measured = 2880

[[record]]
smiles_structure = "COc1ccc(N(C)C(=O)[C@H](Cc2cc(F)cc(F)c2)NC(=O)CN(Cc2ccc(C#N)cc2)C(=O)Cc2c[nH]c3ccc(F)cc23)cc1"
experimental_target = "Human immunodeficiency virus 1"
measured = 17200

[[record]]
smiles_structure = "COc1ccc(-n2c(SCCCN3CCOCC3)nnc2[C@H](Cc2ccccc2)NC(=O)Cc2c(C)[nH]c3ccccc23)cc1"
experimental_target = "Human immunodeficiency virus 1"
measured = 590

[[record]]
smiles_structure = "COc1ccc(-n2c([C@H](Cc3ccccc3)NC(=O)CN3CCN(S(=O)(=O)c4ccc(N)cc4)CC3)nc3cc(Cl)ccc3c2=O)cc1"
experimental_target = "Human immunodeficiency virus 1"
measured = 610

[[record]]
smiles_structure = "COc1ccc(-n2c([C@H](Cc3ccccc3)NC(=O)CN3CCN(S(=O)(=O)c4ccc([N+](=O)[O-])cc4)CC3)nc3cc(F)ccc3c2=O)cc1"
experimental_target = "Human immunodeficiency virus 1"
measured = 1990

[[record]]
smiles_structure = "COc1ccc(N(C)C(=O)[C@H](Cc2ccccc2)NC(=O)CN2CCN(C(=O)Cc3c[nH]c4ccc(OC)cc34)CC2=O)cc1"
experimental_target = "Human immunodeficiency virus 1"
measured = 14600


Next item in the queue.
Which measured EC50 value corresponds to `COc1ccc(-n2c(S)nnc2[C@H](Cc2ccccc2)NC(=O)Cc2c(C)[nH]c3ccccc23)cc1` ?
4940

###

- Test system: Human immunodeficiency virus 1
- ASSAY REMARKS: Antiviral activity against HIV1 IIIB infected in human MT4 cells assessed as reduction in virus induced cytopathic effect measured after 5 days by MTT assay
- Type: functional, organism-based
- MEASUREMENT PARAMETERS: Human immunodeficiency virus 1, IIIB, MT4, 120 h
TEST READOUT: EC50 (µM)
Express your answer in µM, writing the number without its unit.

[[record]]
smiles_structure = "COc1ccc(-n2c(SCc3ccc(S(C)(=O)=O)cc3)nnc2[C@H](Cc2ccccc2)NC(=O)Cc2c(C)[nH]c3ccccc23)cc1"
measured = 2.43

[[record]]
smiles_structure = "COc1ccc(N(C)C(=O)[C@H](Cc2cc(F)cc(F)c2)NC(=O)CN(C(=O)Cc2c(C)[nH]c3ccccc23)C2CC2)cc1"
measured = 3.08

[[record]]
smiles_structure = "COc1ccc(N(C)C(=O)[C@H](Cc2cc(F)cc(F)c2)NC(=O)CN(Cc2ccc(F)cc2)C(=O)Cc2c[nH]c3ccc(Br)cc23)cc1"
measured = 2.93

[[record]]
smiles_structure = "COc1ccc(N(C)C(=O)[C@H](Cc2cc(F)cc(F)c2)NC(=O)CN(Cc2ccc(F)cc2)C(=O)Cc2ccc(B3OC(C)(C)C(C)(C)O3)cc2)cc1"
measured = 11.7

[[record]]
smiles_structure = "COc1ccc(-n2c(SCCN3CCOCC3)nnc2[C@H](Cc2ccccc2)NC(=O)Cc2c(C)[nH]c3ccccc23)cc1"
measured = 0.79

[[record]]
smiles_structure = "COc1ccc(-n2c([C@H](Cc3cc(F)cc(F)c3)NC(=O)CN3CCN(S(=O)(=O)c4ccc([N+](=O)[O-])cc4)CC3)nc3cc(F)ccc3c2=O)cc1"
measured = 0.49

[[record]]
smiles_structure = "COc1ccc(N(C)C(=O)[C@H](Cc2cc(F)cc(F)c2)NC(=O)CN(Cc2ccc(F)cc2)C(=O)Cc2ccc(B(O)O)cc2)cc1"
measured = 4.33

[[record]]
smiles_structure = "COc1ccc(N(C)C(=O)[C@H](Cc2ccccc2)NC(=O)CN2CCN(S(=O)(=O)c3ccc(N)cc3)CC2=O)cc1"
measured = 0.28


Given the entry `COc1ccc(N(C)C(=O)[C@H](Cc2cc(F)cc(F)c2)NC(=O)CN(CC2CCCCC2)C(=O)Cn2nc(C(F)(F)F)cc2C)cc1` , what EC50 was observed with Human immunodeficiency virus 1?
30.3

Given the entry `COc1ccc(N(C)C(=O)[C@H](Cc2ccccc2)NC(=O)Cn2ccc(NC(=O)c3ccccc3F)cc2=O)cc1` , what EC50 was observed with Human immunodeficiency virus 1?
17.9

Given the entry `COc1ccc(-n2c([C@H](Cc3cc(F)cc(F)c3)NC(=O)CN3CCN(S(=O)(=O)c4ccc([N+](=O)[O-])cc4)CC3)nc3cc(Cl)ccc3c2=O)cc1` , what EC50 was observed with Human immunodeficiency virus 1?
0.59

Given the entry `COc1ccc(N(C)C(=O)[C@H](Cc2cc(F)cc(F)c2)NC(=O)CN2CCN(C(=O)Cc3c[nH]c4ccccc34)CC2=O)cc1` , what EC50 was observed with Human immunodeficiency virus 1?
29.4

Given the entry `COc1ccc(N(C)C(=O)[C@H](Cc2cc(F)cc(F)c2)NC(=O)CN(Cc2ccc(F)cc2)C(=O)Cn2nc(C(F)(F)F)c3ccccc32)cc1` , what EC50 was observed with Human immunodeficiency virus 1?
2.53

Given the entry `COc1ccc(N(C)C(=O)[C@H](Cc2ccccc2)NC(=O)Cc2c(C)[nH]c3ccccc23)cc1` , what EC50 was observed with Human immunodeficiency virus 1?
0.8

Each recorded value in this set is attributed to ChEMBL document CHEMBL5344428.
